A compilation of published IC50 results with 3',5'-cyclic-AMP phosphodiesterase 4B (Homo sapiens, UniProt Q07343).
quantity_name: IC50 (nM)

Known IC50 results, listed for orientation:
compound	assay_system	endpoint_result
O=C(NC1CC(F)C1)c1cc2cccnc2n1-c1ccc(Cl)c(Cl)c1 (centres unmarked)	3',5'-cyclic-AMP phosphodiesterase 4B (Homo sapiens, UniProt Q07343)	600
CCCOc1cc(-c2cncc(C3COB(O)C3)c2C)ccc1OC (single isomer, unassigned)	3',5'-cyclic-AMP phosphodiesterase 4B (Homo sapiens, UniProt Q07343)	0.29
CCCOc1cc(-c2cncc(C3COB(O)C3)c2)ccc1OC (centres unmarked)	3',5'-cyclic-AMP phosphodiesterase 4B (Homo sapiens, UniProt Q07343)	0.52

(1) CCOc1cc(-c2cncc([C@H]3COB(O)C3)c2)ccc1OC
(2) COc1ccc([C@@H]2CN(C(=O)[C@@H](O)CO)C[C@@]2(C)[C@@H](C)O)cc1OC1CN(c2ncc(F)cc2Cl)C1
(3) CCOc1cc(-c2cncc(C3COB(O)C3)c2)c(Cl)cc1OC (single isomer, unassigned)
(4) COc1c(F)cc(-n2c(C(=O)N3CC(F)C3)cc3cccnc32)cc1F
(5) COc1ccc([C@@H]2CN(C(=O)[C@@H](O)CO)C[C@@]2(C)[C@@H](C)O)cc1OC1CN(c2ccc(F)c(C)n2)C1
Given 5 compounds, produce a descending ranking by IC50. Reply: labels, ordered per the request. 4, 2, 5, 3, 1
(4: 410 nM, 2: 6.65 nM, 5: 2.76 nM, 3: 1.57 nM, 1: 0.67 nM)
